- EXPERIMENTAL_TARGET: CYP2D6 (Homo sapiens, UniProt P10635)
- Sequence (P10635 whole entry): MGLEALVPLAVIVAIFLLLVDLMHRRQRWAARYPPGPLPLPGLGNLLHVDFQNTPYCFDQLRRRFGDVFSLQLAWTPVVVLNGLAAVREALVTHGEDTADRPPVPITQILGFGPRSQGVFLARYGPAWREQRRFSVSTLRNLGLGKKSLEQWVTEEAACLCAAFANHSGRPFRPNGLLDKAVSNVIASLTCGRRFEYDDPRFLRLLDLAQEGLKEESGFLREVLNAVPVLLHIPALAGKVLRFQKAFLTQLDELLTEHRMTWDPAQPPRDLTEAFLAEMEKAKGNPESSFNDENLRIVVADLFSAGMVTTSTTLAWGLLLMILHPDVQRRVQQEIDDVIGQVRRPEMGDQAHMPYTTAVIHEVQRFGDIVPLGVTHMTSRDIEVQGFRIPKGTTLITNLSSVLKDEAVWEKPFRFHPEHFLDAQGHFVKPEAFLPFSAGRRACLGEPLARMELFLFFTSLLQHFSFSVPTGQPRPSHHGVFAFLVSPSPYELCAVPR
- ASSAY_COMMENT: drug interaction study of vibegron and metoprolol succinate (moderately sensitive CYP2D6 substrate)
- Type: in vivo
- Set-up: from tissue; host or cells: in vivo, healthy adult human subjects (endogenous enzyme)
- MEASUREMENT_CONDITIONS: human, plasma; metoprolol 100 mg alone
QUANTITY_KIND: Cmax (ng/mL)
The reply should be a number in ng/mL, with the unit left off.

So, COCCc1ccc(OCC(O)CNC(C)C)cc1 (stereo not shown) [Metoprolol, metoprolol succinate] ? Its Cmax was 21.9

---

- EXPERIMENTAL_TARGET: CYP2D6 (Homo sapiens)
- ASSAY_COMMENT: clinical
- MEASUREMENT_CONDITIONS: in vivo, 4 mg
QUANTITY_KIND: AUC(0-t) (ng·h/mL)
# unit: ng·h/mL | format: bare number

The recorded AUC(0-t) for Cc1ccc(O)c([C@H](CCN(C(C)C)C(C)C)c2ccccc2)c1 [Tolterodine ER, tolterodine, reference compound] is 28.4

---

- EXPERIMENTAL_TARGET: UniProtKB P10635
- ASSAY_COMMENT: drug interaction study of vibegron and metoprolol succinate (moderately sensitive CYP2D6 substrate)
- Assay type: in vivo
- Design: from tissue; host or cells: in vivo, healthy adult human subjects (endogenous enzyme)
- MEASUREMENT_CONDITIONS: human, plasma; metoprolol 100 mg alone; read-out: t1/2, GM (% CV) (converted)
QUANTITY_KIND: half-life (h)
Quick note: give the figure in h, leave out the unit.

Record summary for COCCc1ccc(OCC(O)CNC(C)C)cc1 (stereo not shown) [Metoprolol, metoprolol succinate] : reported half-life = 9.5

---

- EXPERIMENTAL_TARGET: CYP2D6 (Homo sapiens)
- ASSAY_COMMENT: clinical
- MEASUREMENT_CONDITIONS: in vivo, 4 mg
QUANTITY_KIND: half-life (min)
Give the quantity in min, number only.

Summary for this compound, Cc1ccc(O)c([C@H](CCN(C(C)C)C(C)C)c2ccccc2)c1 [Tolterodine ER, tolterodine, reference compound] : half-life is 600

---

- ASSAY_COMMENT: drug interaction study of vibegron and rifampin, pharmacokinetics
- Assay type: in vivo, human
- MEASUREMENT_CONDITIONS: both sexes, human, in vivo, oral, 75 mg; read-out: AUC0-∞, geometric mean (% CV)
QUANTITY_KIND: AUC(0-inf) (ng·h/mL)
Report only the number, with the unit ng·h/mL understood.

The molecule identified as O=C(Nc1ccc(C[C@@H]2CC[C@H]([C@H](O)c3ccccc3)N2)cc1)[C@@H]1CCc2nccc(=O)n21 registered its AUC(0-inf) at 1310

---

- EXPERIMENTAL_TARGET: CYP2D6 (Homo sapiens, UniProt P10635)
- ASSAY_COMMENT: drug interaction study of vibegron and metoprolol succinate (moderately sensitive CYP2D6 substrate)
- Type: in vivo
- Design: from tissue; host or cells: in vivo, healthy adult human subjects (endogenous enzyme)
- MEASUREMENT_CONDITIONS: human, plasma; metoprolol 100 mg alone
QUANTITY_KIND: AUC(0-inf)
Answer shape: numeric part, then the unit.

Given the compound COCCc1ccc(OCC(O)CNC(C)C)cc1 (stereo not shown) [Metoprolol, metoprolol succinate] and test system CYP2D6 (Homo sapiens, UniProt P10635), the measured AUC(0-inf) is 384 ng·h/mL
